Assign protein stability index to each entry below.
B1: NCF4 (parent)
chain: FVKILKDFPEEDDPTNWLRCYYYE

# Variants of: B1
# protocol_summary: protein stability index of a GFP-peptide fusion (GPS, HEK-293T) (PSI 1-6); higher = more stable;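 note: lentivirally expressed fusions sorted by FACS into six bins by GFP to DsRed ratio, PSI derived from sequencing read proportions per bin multiplied by bin number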
# condition_info: c terminus: a fixed tail appended
Answers are plain numbers.

Example entries and their recorded answers appear below.
[
  {
    "mutation": "Y21M",
    "recorded_measurement": 1.75
  },
  {
    "mutation": "E11A",
    "recorded_measurement": 1.68
  },
  {
    "mutation": "V2H",
    "recorded_measurement": 1.57
  },
  {
    "mutation": "W17P",
    "recorded_measurement": 1.54
  }
]

List the reported protein stability index of each variant below.
1. Y22C
2. T15N
3. P9A

1: 1.92; 2: 2.03; 3: 2.67

Go through the list and state protein stability index for each entry.
1. F1T
2. C20G
3. Y21A
4. P14S
5. Y22Q
6. E24F
7. E10A

1. 2.6
2. 2.06
3. 1.1
4. 2.5
5. 3.25
6. 2.3
7. 1.47

Quick batch: protein stability index for everything below.
1. Y22V
2. C20N

1: 1.03; 2: 2.74
